Recorded Drug uptake, one value per entry.
Tested on: Bone
Assay: Biodistribution in Sprague-Dawley rat bone at 1.48 to 2.22 MBq, iv measured at 60 mins by gamma counting analysis
Assay type: ADME, organism-based, Bone element
Details: in vivo, 1 h
Kindly format the answer as number then unit.

Solved cases below.
Cn1cc(-c2ccncc2)c(-c2ccc(OCc3cc(COCC[18F])c4ccccc4n3)cc2)n1	0.337 % ID/g
Cn1cc(-c2ccncc2)c(-c2ccc(OCc3cc(OCCOCCOCC[18F])c4ccccc4n3)cc2)n1	0.49 % ID/g
Cn1cc(-c2ccncc2)c(-c2ccc(OCc3cc(OCC[18F])c4ccccc4n3)cc2)n1	0.142 % ID/g

Switching to the query record.
The recorded Drug uptake for entry "Cn1cc(-c2ccncc2)c(-c2ccc(OCc3nc4ccccc4cc3OCC[18F])cc2)n1" equals 0.224 % ID/g
